Parameter: tissue uptake at 1 h. Scope: all listed entries.
Test: Tissue distribution (biodistribution) of radioiodinated compound in the rat
Conditions: rat, kidney, iv, radioactivity in kidney, 60 min

For orientation, consider the following solved cases.
Return tissue uptake at 1 h for the following molecule: OC(Cc1ccc([125I])cc1)CN1CCC(c2ccccc2)CC1 (single isomer, unassigned; (+)) [(+)-4-[^125 l]HIPP]
2.3 %ID/g

Tell us which tissue uptake at 1 h value is on record for OC(Cc1cccc([125I])c1)CN1CCC(c2ccccc2)CC1 (single isomer, unassigned; (+)) [(+)-[^125 l]12]
1.28 %ID/g

Next:
For the molecule OC(CN1CCC(c2ccccc2)CC1)c1ccc([125I])cc1 (single isomer, unassigned; (+)) [(+)-[^125 l]13] , give its reported tissue uptake at 1 h.
1.86 %ID/g

---

In this section, each of the molecules is paired with its reported tissue uptake at 1 h.
Assay: Blocking experiments: inhibition of radiotracer accumulation in the rat by coadministered compound
Type: in vivo, rat (male Wistar)
Settings: rat, kidney, iv, rat, iv, 60 min, radiotracer only (control); read-out: radioactivity in kidney
Just the number please, in %ID/g, no unit attached.

Specify tissue uptake at 1 h for OC(CN1CCC(c2ccccc2)CC1)c1ccc([125I])cc1 (single isomer, unassigned; (+)) [(+)-[^125 l]13] and stop.
1.87

Determine its reported tissue uptake at 1 h: OC(Cc1cccc([125I])c1)CN1CCC(c2ccccc2)CC1 (single isomer, unassigned; (+)) [(+)-[^125 l]12]
1.48

Next:
Respond only with tissue uptake at 1 h recorded for OC(Cc1ccc([125I])cc1)CN1CCC(c2ccccc2)CC1 (single isomer, unassigned; (-)) [(-)-4-[^125 l]HIPP]
1.9

---

Assay: Tissue distribution (biodistribution) of radioiodinated compound in the rat
Conditions: rat, lung, iv, radioactivity in lung, 180 min
quantity kind: tissue uptake at 3 h

For the molecule OC(Cc1ccc([125I])cc1)CN1CCC(c2ccccc2)CC1 (single isomer, unassigned; (+)) [(+)-4-[^125 l]HIPP] , report tissue uptake at 3 h.
3.74 %ID/g

---
Indicate its recorded tissue uptake at 3 h; the molecule in question is OC(Cc1cccc([125I])c1)CN1CCC(c2ccccc2)CC1 (single isomer, unassigned; (+)) [(+)-[^125 l]12]
0.61 %ID/g

---

Assay: Blocking experiments: inhibition of radiotracer accumulation in the rat by coadministered compound
Type: in vivo, rat (male Wistar)
Conditions: rat, lung, iv, rat, iv, 60 min, + cold (dl)3-HIPP HCl 0.53 mg/kg; read-out: radioactivity in lung
quantity kind: tissue uptake at 1 h (%ID/g)
Report the value in %ID/g with no unit label.

Tell us which tissue uptake at 1 h value is on record for OC(Cc1cccc([125I])c1)CN1CCC(c2ccccc2)CC1 (single isomer, unassigned; (+)) [(+)-[^125 l]12]
0.92

---

Assay: Blocking experiments: inhibition of radiotracer accumulation in the rat by coadministered compound
Type: in vivo, rat (male Wistar)
Conditions: rat, kidney, iv, rat, iv, 60 min, + (-)-7 HCl 0.53 mg/kg; read-out: radioactivity in kidney
Method: *Animals in group 1 received an iv injection of (+)4-[^125 l]HIPP only. For groups 2, 3, and 4, the radiotracer was coadministered with the hydrochlorides of (+)7 (0.53 mg/kg), (-)7 (0.53 mg/kg) and vesamicol (0.3 Four groups of male Wistar rats (n=3) were used in these experiments. All animals received an iv dose of 8-10 μCi of the radiotracer in 0.1 ml of 50% aq. ethanol. […] The data was analyzed as outlined above. […]
quantity kind: tissue uptake at 1 h (%ID/g)
Answer with a number only, understood to be in %ID/g.

Provide measured tissue uptake at 1 h value, entry: OC(Cc1ccc([125I])cc1)CN1CCC(c2ccccc2)CC1 (single isomer, unassigned; (-)) [(-)-4-[^125 l]HIPP]
0.42
